Origin of values: paper PMC9352680

Field: pKd. Provide a value for each of the binders that follow.
# experimental system: T1, PUF4 RNA-binding domain (Saccharomyces cerevisiae, UniProt P25339 537-888)
# T1 sequence: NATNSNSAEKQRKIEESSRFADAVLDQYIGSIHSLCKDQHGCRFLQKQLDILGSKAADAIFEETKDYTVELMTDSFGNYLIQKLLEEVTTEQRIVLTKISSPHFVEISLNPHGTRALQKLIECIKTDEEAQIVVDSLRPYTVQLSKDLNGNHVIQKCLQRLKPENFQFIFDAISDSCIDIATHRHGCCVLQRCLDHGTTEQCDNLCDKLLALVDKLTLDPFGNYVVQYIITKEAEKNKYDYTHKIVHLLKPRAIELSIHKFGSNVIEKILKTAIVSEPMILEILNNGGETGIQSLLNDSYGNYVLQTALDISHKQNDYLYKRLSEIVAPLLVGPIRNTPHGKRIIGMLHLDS
# assay: Mg; RNA-MaP; 20 mM Na-HEPES pH 7.4, 30 mM KOAc, 0.75 mM MgCl2, 0.1% Tween-20, 5% glycerol, 0.1 mg/mL BSA, 2 mM DTT; 25 C; 0.0125-409.6 nM protein
# protocol conditions: tags: N-His6-TEV cleaved; C-SNAP kept, Cy3B-labelled; label: tethered on chip by stalled RNA polymerase
In textbook form, pKd equals minus log to base ten of the concentration in mol/L.

# input Fill in the blank: the reported pKd of Ic_S2_P4E.1_K4.1_C4.1_H4.1_A4.1_[A6C]_[T7C]_F4.1_[T8A]_[A9C]_T4.1 (ssRNA) RNA: UUUGAUUAAUAUGAUAUCGUUCUUUCUUGUAUCCACUUCUUUCUCGAUAUCAUAUUAAUCUUU is ____.
# output 6.09

# input I would be grateful if you could share the reported pKd for Ic_S2_P5E.1_K5.1_C5.1_H5.1_A5.1_[A7T]_F5.1_[T8A]_[A10G]_T5.1 (ssRNA) RNA: UUUGAUUAAUAUGAUAUCGUUCUUUCUUGUAUUUAUGUUCUUUCUCGAUAUCAUAUUAAUCUUU .
# output 7.80

# input Recorded pKd for Ic_S4_P5E.1_K5.1_C5.1_H5.1_A5.1_[T5A]_F5.1_[T9C]_T5.1 (ssRNA) RNA: UUUGACAACUGAUCGUUCUUUCUUGUAAUAUCAUUCUUUCUCGAUCAGUUGUCUUU , please?
# output 6.95

# input Given Ie_S2_P3E.2_K3.1_C3.2_H3.1_[+2CCTCT]_A3.1_F3.1_T3.2 (ssRNA) RNA: UUUGAUUAAUAUGAUAUCGUUCUUUCUCUUGCCUCUUAUAUAUAUUCUUUCUCGAUAUCAUAUUAAUCUUU , state its recorded pKd.
# output 6.95

# input # get_value(readout='pKd', item= UCUCUUAGUAUAUAUAUGUCUCUU (ssRNA) [Id_ii_S1_P3E.3_K3.2_C3.2_[C-2A]_[T-1G]_H3.2_A3.1_F3.1_T3.2_[A10G]] )
# output 6.30

# input // pKd lookup, key: UCUCUUAAUAUAUAUUACUUCUCUU (ssRNA) [Id_ii_S1_P4E.3_K4.2_C4.2_[C-2A]_[T-1A]_H4.2_A4.1_F4.1_T4.2_[G10C]]
# output 7.25

# input Sample UCUCUUUGUAUAUUAUCCUCUCUU (ssRNA) [Ie_S1_P4E.1_K4.1_C4.1_H4.1_A4.1_F4.1_[+9TCC]_T4.1] — what was its pKd?
# output 9.32

# input Quick check: pKd of UCUCUUCUUUUGUAUAUAUAUCUCUU (ssRNA) [Ie_S1_P3E.2_K3.1_C3.2_H3.1_[+1TT]_A3.1_F3.1_T3.2] ?
# output 8.26

# input May I ask what pKd has been recorded for UCUCUUGCUAUAUAUUACUUCUCUU (ssRNA) [Id_ii_S1_P4E.3_K4.2_C4.2_[C-2G]_[T-1C]_H4.2_A4.1_F4.1_T4.2_[G10C]] ?
# output 7.51

# input Can you look up the measured pKd of UCUCUUUGUACCCUAGUCUCUU (ssRNA) [Ic_S1_P5E.1_K5.1_C5.1_H5.1_A5.1_[T5C]_[T6C]_[A7C]_F5.1_[T9A]_[A10G]_T5.1] for me?
# output 8.36

# input For the binder Id_ii_S2_P3E.2_K3.1_C3.2_[C-2A]_H3.1_A3.1_F3.1_T3.2 (ssRNA) RNA: UUUGAUUAAUAUGAUAUCGUUCUUUCUAUUGUAUAUAUAUUCUUUCUCGAUAUCAUAUUAAUCUUU , what pKd is on record?
# output 8.29

# input Any idea what pKd was measured for UCUCUUUUCUGUAUUAUUAUCUCUU (ssRNA) [Ie_S1_P5E.1_K5.1_C5.1_H5.1_[+1TCT]_A5.1_F5.1_T5.1] ?
# output 8.31

# input Fill in: pKd of Ib_S4_P4E.1_K4.1_C4.1_H4.1_A4.1_[T7C]_F4.1_[T8A]_T4.1 (ssRNA) RNA: UUUGACAACUGAUCGUUCUUUCUUGUAUACAAUUCUUUCUCGAUCAGUUGUCUUU is ___
# output 7.73

# input Query (binder): Id_ii_S2_P5E.3_K5.2_C5.2_[C-2G]_[T-1C]_H5.2_A5.1_F5.1_T5.2_[A12T] (ssRNA) RNA: UUUGAUUAAUAUGAUAUCGUUCUUUCUGCUAUAUUAUUAUUUUCUUUCUCGAUAUCAUAUUAAUCUUU ; field requested: pKd
# output 7.03

# input Quick one: pKd for UCUCUUUGUAUCUCUGUCUCUU (ssRNA) [Ic_S1_P5E.1_K5.1_C5.1_H5.1_A5.1_[T6C]_[A7T]_F5.1_[T8C]_[A10G]_T5.1] ?
# output 7.23

# input What value of pKd has been reported for the following binder? UCUCUUUGUCUCUAUUAUUAUCUCUU (ssRNA) [Ie_S1_P5E.1_K5.1_C5.1_H5.1_[+2TCTC]_A5.1_F5.1_T5.1]
# output 6.39

# input Using the record for Ie_S4_P4E.1_K4.1_C4.1_H4.1_[+4CTCTC]_A4.1_F4.1_T4.1 (ssRNA) RNA: UUUGACAACUGAUCGUUCUUUCUUGUACUCUCUAUUAUUCUUUCUCGAUCAGUUGUCUUU , report its pKd.
# output 8.18

# input What value of measured pKd is listed for ACAAACGAUAUAUAUUAAUACAAAC (ssRNA) [Id_ii_S3_P4E.3_K4.2_C4.2_[C-2G]_[T-1A]_H4.2_A4.1_F4.1_T4.2_[G10A]] ?
# output 7.39

# input Value lookup for pKd; key = UCUCUUUGUAUUCUUGUCUCUU (ssRNA) [Ib_S1_P5E.1_K5.1_C5.1_H5.1_A5.1_[A7C]_F5.1_[A10G]_T5.1]
# output 7.69

# input Endpoint output: pKd of ACAAACGUACACUAUUAACACAAAC (ssRNA) [Id_ii_S3_P4E.4_K4.3_C4.2_[C-2G]_H4.3_A4.1_F4.1_T4.2_[G10A]_[T11C]] . Value?
# output 7.40

# input Suppose we examine the binder UCUCUUCAUGUAUAUUAAGUCUCUU (ssRNA) [Id_ii_S1_P4E.2_K4.1_C4.2_[T-1A]_H4.1_A4.1_F4.1_T4.2_[G10A]_[T11G]] ; what pKd value has been reported?
# output 8.62
